For each entry below, report its folding stability dG unfold value.
Protocol Summary: folding stability dG unfold from chymotrypsin proteolysis; higher = more stable
Give a bare numeral; the unit kcal/mol is implied.

Field request: folding stability dG unfold | item: SAGGSAGGSAGGSDNKAILGDVPIKFYDKNGKPVITAKIGYFPDGRVVIYFPDGSKIEASAGGSAGGSAGGS [r10_972_TrMRF]
1.04

What do we get for SAGNVIVVVNPETGEVVVVSFDELVRIVAVSSKTLVPEVRDVPRDKVLDFIKEAFPGPVEILEIKPAPVSAG [r5_519_TrMRF] ?
1.22

What do we get for SAGGSAGGLHPDEEFVVLFRIDVRARPVSPNAHPELKKKFPNAVIVEAKIDVLILPKEKVKELFSAGGSAGG [r6_830_TrMRF] ?
3.44

What do we get for SAGGSAGGMKITIEKLDPEKGVYLLTVKPPGPGKTLVIELPVEKEEEALAFAKKLEELGYEVENSAGGSAGG [r6_796_TrMRF] ?
1.57

What do we get for SAGGSAGGSAREELVRRAAEEGLPGVRVLAIPPGNREVPAIVEGDKVYSYDLPDDAEVVVASAGGSAGGSAG [r3_244_TrMRF] ?
0.408
